The reported numbers originate from PubChem BioAssay (NCI).

Test system: SK-MEL-5 melanoma
method: NCI-60 one-dose screen, 48 h
experimentalConditions: 10 µM unless noted
The panel holds about 83,000 compounds, 20% with a hit somewhere; the sample as a whole holds those more often. Activity calls are given as the source filed them. The calls were made as follows: active = growth percent below 10; inactive = the rest.
Please answer using one outcome listed in Y = active, N = inactive

Ask: Please indicate how the test categorized CCCCCCCC(=O)SCC/C=C/[C@@H]1CC(=O)NCc2nc(co2)C2=N[C@@](C)(CS2)C(=O)N[C@@H](C(C)C)C(=O)O1 .
Result: Y

Ask: Please indicate how the test categorized COc1cc(Nc2c(C#N)cnc3cc(OCCCN4CCN(C)CC4)c(OC)cc23)c(Cl)cc1Cl .
Result: N

Ask: Please indicate how the test categorized CC(C)(C)CC(C)(C)Nc1c(-c2c(O)c3ccccc3oc2=O)nc2c(Cl)cc(C(F)(F)F)cn12 .
Result: N

Ask: Please indicate how the test categorized Oc1ccc(/C=N/Nc2nnc(N/N=C/c3ccc(O)cc3O)c3ccccc23)c(O)c1 .
Result: Y
